Ref: patent US20170360911A1

molecular target: T1, HLA-A*24:02 (human); experiment: T2-A24 MHC class I stabilization, flow cytometry, anti-HLA-A24 17A10-FITC, peptide 100 ug/mL;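 further: peptide exposure stabilizes otherwise empty class I molecules on T2 cell surfaces, so surface class I level reflects how strongly the peptide binds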
T1 construct: whole, on cells; Empty class I molecule on T2-A24 cells
A collection of binders and their measured MFI (solvent ratio)

[[record]]
binder = "VVVNAYEHI [As340_9]"
value_type = "MFI (solvent ratio)"
obs_value = "1 ratio to solvent"


### Prompt Would you mind telling me what MFI (solvent ratio) value was observed for SLPLSLKKYL [As408_10] ?
### Response 1 ratio to solvent

### Prompt Would you mind telling me what MFI (solvent ratio) value was observed for SVLFGHVECL [As82_10] ?
### Response 2.7 ratio to solvent

### Prompt Would you mind telling me what MFI (solvent ratio) value was observed for KILCDRGAKL [As124_10] ?
### Response 2.2 ratio to solvent

### Prompt Would you mind telling me what MFI (solvent ratio) value was observed for KLKSSWATGL [As70_10] ?
### Response 1 ratio to solvent
